assay: Kinetic solubility; settings: kinetic from dmso stock, Solubility, kinetic solubility; n = 1 or average of n = 2-3
QUANTITY MEASURED: solubility (µM)
Provide only the numeric value, understood in µM.

Below: 5 compounds and their reported solubility.
C[C@H]1CCN(c2ccc3nccc(C(=O)NCC(=O)N4CSC[C@H]4C#N)c3c2)C1=O (single isomer, unassigned): 90
COCC1(C)CN(c2ccc3nccc(C(=O)NCC(=O)N4CSC[C@H]4C#N)c3c2)C1: 560
N#C[C@@H]1CSCN1C(=O)CNC(=O)c1ccnc2ccc(N3CCC(C(F)(F)F)CC3)cc12: 22
N#C[C@@H]1CSCN1C(=O)CNC(=O)c1ccnc2ccc(-n3cc4c(n3)CCCC4)cc12: 0.59
CC1(C)CCN(c2ccc3nccc(C(=O)NCC(=O)N4CSC[C@H]4C#N)c3c2)CC1: 85

Req: What value of solubility has been reported for the following compound? C[C@@H]1CN(c2ccc3nccc(C(=O)NCC(=O)N4CSC[C@H]4C#N)c3c2)C[C@H](C)[C@]1(C)O
Resp: 940

Req: What value of solubility has been reported for the following compound? CCC1(O)CN(c2ccc3nccc(C(=O)NCC(=O)N4CSC[C@H]4C#N)c3c2)C1
Resp: 850

====

human Fibroblast activation protein alpha (hFAP) (Homo sapiens (Human)) data, read-out pIC50; note: hFAP 2.4 pM
Reminder that pIC50 is minus the log10 of a molar concentration.

Below: 6 compounds and their reported pIC50.
N#C[C@@H]1CSCN1C(=O)CNC(=O)c1ccnc2ccc(-n3ncc4c3CCCC4)cc12: 10.14
N#C[C@@H]1CSCN1C(=O)CNC(=O)c1ccnc2ccc(N3CC4(CC4)C3)cc12: 10.09
N#C[C@@H]1CSCN1C(=O)CNC(=O)c1ccnc2ccc(N3CC[C@H](F)C3)cc12: 10.19
N#C[C@@H]1CSCN1C(=O)CNC(=O)c1ccnc2ccc(N3CC(F)(CF)C3)cc12: 9.43
N#C[C@@H]1CSCN1C(=O)CNC(=O)c1ccnc2ccc(N3CC(F)C3)cc12: 9.96
N#C[C@@H]1CSCN1C(=O)CNC(=O)c1ccnc2ccc(N3CC4(CCCC4)C3)cc12: 9.49

Req: What value of pIC50 has been reported for the following compound? N#C[C@@H]1CSCN1C(=O)CNC(=O)c1ccnc2ccc(N3C[C@H](F)[C@@H](F)C3)cc12
Resp: 10.41

====

assay: Metabolic stability in human liver microsomes (HLM); conditions: human, HLM CLint, n = 1 or average of n = 2-3
Entries are grouped by microsomal CLint into these classes: bin A: < 20 µL/min/mg; bin B: ≥ 20 µL/min/mg and < 50 µL/min/mg; bin C: ≥ 50 µL/min/mg

N#C[C@@H]1CSCN1C(=O)CNC(=O)c1ccnc2ccc(N3CC[C@H](F)C3)cc12: bin A
C[C@@H]1CCN(c2ccc3nccc(C(=O)NCC(=O)N4CSC[C@H]4C#N)c3c2)C1=O (single isomer, unassigned): bin A
N#C[C@@H]1CSCN1C(=O)CNC(=O)c1ccnc2ccc(N3C[C@H]4C[C@@H]3CO4)cc12: bin A
CC(F)(F)CC1CN(c2ccc3nccc(C(=O)NCC(=O)N4CSC[C@H]4C#N)c3c2)C1: bin B
Cc1ccn(-c2ccc3nccc(C(=O)NCC(=O)N4CSC[C@H]4C#N)c3c2)c1: bin B

Req: Lab note: sort N#C[C@@H]1CSCN1C(=O)CNC(=O)c1ccnc2ccc(-n3ccc4c3CCCC4)cc12 into the matching microsomal CLint band.
Resp: bin C

Req: Lab note: sort C[C@@H]1CN(c2ccc3nccc(C(=O)NCC(=O)N4CSC[C@H]4C#N)c3c2)C[C@H](C)[C@@H]1O into the matching microsomal CLint band.
Resp: bin B

Req: Lab note: sort COCC1(C)CN(c2ccc3nccc(C(=O)NCC(=O)N4CSC[C@H]4C#N)c3c2)C1 into the matching microsomal CLint band.
Resp: bin A

====

test: Caco-2 cell permeability; conditions: human
// reported Papp B→A per item
Field: value (include unit after the number)

Below: 2 molecules and their reported Papp B→A.
C[C@H]1CN(c2ccc3nccc(C(=O)NCC(=O)N4CSC[C@H]4C#N)c3c2)CCO1 [Example 80]: 250 nm/s
CC1(CS(C)(=O)=O)CN(c2ccc3nccc(C(=O)NCC(=O)N4CSC[C@H]4C#N)c3c2)C1 [Example 188]: 37 nm/s

Req: What value of Papp B→A has been reported for the following molecule? N#C[C@@H]1CSCN1C(=O)CNC(=O)c1ccnc2ccc(N3C4CCC3COC4)cc12 [Example 98]
Resp: 180 nm/s

Req: What value of Papp B→A has been reported for the following molecule? CS(=O)(=O)C[C@H]1CN(c2ccc3nccc(C(=O)NCC(=O)N4CSC[C@H]4C#N)c3c2)CCO1 [Example 92]
Resp: 42 nm/s

====

molecular target: human Fibroblast activation protein alpha (hFAP) (Homo sapiens (Human), UniProt Q12884); note: hFAP 2.4 pM
Sequence (Q12884 38-760): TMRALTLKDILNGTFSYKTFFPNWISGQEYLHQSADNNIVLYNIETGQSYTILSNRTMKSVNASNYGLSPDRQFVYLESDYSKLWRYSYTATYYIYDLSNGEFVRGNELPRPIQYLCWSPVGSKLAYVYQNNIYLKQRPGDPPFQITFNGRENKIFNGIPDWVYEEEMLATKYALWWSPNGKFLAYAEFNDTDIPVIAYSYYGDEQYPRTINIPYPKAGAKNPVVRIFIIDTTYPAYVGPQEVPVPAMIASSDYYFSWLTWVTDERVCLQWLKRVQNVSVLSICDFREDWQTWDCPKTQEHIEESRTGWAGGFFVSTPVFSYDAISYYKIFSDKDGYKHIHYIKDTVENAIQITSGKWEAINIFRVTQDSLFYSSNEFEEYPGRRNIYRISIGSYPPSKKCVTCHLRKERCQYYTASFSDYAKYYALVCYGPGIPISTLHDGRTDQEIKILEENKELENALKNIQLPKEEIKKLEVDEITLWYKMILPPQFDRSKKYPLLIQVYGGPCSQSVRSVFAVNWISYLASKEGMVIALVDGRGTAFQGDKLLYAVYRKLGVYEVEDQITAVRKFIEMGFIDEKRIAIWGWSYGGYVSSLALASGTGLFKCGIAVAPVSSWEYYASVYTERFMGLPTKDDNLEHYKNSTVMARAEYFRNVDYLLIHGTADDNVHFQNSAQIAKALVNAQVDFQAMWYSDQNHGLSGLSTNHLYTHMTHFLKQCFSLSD
QUANTITY MEASURED: pIC50
Reminder that pIC50 is minus the log10 of a molar concentration.

Below: 3 compounds and their reported pIC50.
N#C[C@@H]1CSCN1C(=O)CNC(=O)c1ccnc2ccc(N3CCC[C@H]3C3CC3)cc12 (single isomer, unassigned): 9.62
CC1(C)CCN(c2ccc3nccc(C(=O)NCC(=O)N4CSC[C@H]4C#N)c3c2)C1=O: 10.19
N#C[C@@H]1CSCN1C(=O)CNC(=O)c1ccnc2ccc(N3CCCC4(CC4)C3)cc12: 10.09

Consider now this further compound.
Req: Requested read-out pIC50, target or system human Fibroblast activation protein alpha (hFAP) (Homo sapiens (Human), UniProt Q12884), entry Cc1ccn(-c2ccc3nccc(C(=O)NCC(=O)N4CSC[C@H]4C#N)c3c2)c1; note: hFAP 2.4 pM
Resp: 9.82

====

test: Metabolic stability in human liver microsomes (HLM); conditions: human, HLM CLint, n = 1 or average of n = 2-3
// reported microsomal CLint per item
Provide only the numeric value, understood in µL/min/mg.

N#C[C@@H]1CSCN1C(=O)CNC(=O)c1ccnc2ccc(N3CCO[C@@H](C(F)(F)F)C3)cc12 [Example 73]: 32
CS(=O)(=O)C[C@H]1CN(c2ccc3nccc(C(=O)NCC(=O)N4CSC[C@H]4C#N)c3c2)CCO1 [Example 92]: 14
Cc1ccc(-c2ccc3nccc(C(=O)NCC(=O)N4CSC[C@H]4C#N)c3c2)cn1 [Example 177]: 13

Req: What value of microsomal CLint has been reported for the following compound? N#C[C@@H]1CSCN1C(=O)CNC(=O)c1ccnc2ccc(-c3ccnc(F)c3)cc12 [Example 124]
Resp: 12

Req: What value of microsomal CLint has been reported for the following compound? C[C@@H]1COC[C@H](C)N1c1ccc2nccc(C(=O)NCC(=O)N3CSC[C@H]3C#N)c2c1 [Example 90]
Resp: 100

Req: What value of microsomal CLint has been reported for the following compound? C[C@H]1CCN(c2ccc3nccc(C(=O)NCC(=O)N4CSC[C@H]4C#N)c3c2)CCO1 [Example 62]
Resp: 31

Req: What value of microsomal CLint has been reported for the following compound? CC1CN(c2ccc3nccc(C(=O)NCC(=O)N4CSC[C@H]4C#N)c3c2)C1 [Example 25]
Resp: 23

Req: What value of microsomal CLint has been reported for the following compound? CC1(C)CCN1c1ccc2nccc(C(=O)NCC(=O)N3CSC[C@H]3C#N)c2c1 [Example 20]
Resp: 290

====

assay: Metabolic stability in rat hepatocytes (rHep); conditions: n = 1 or geometric mean of n = 2-3
QUANTITY MEASURED: rHep CLint (μL/min/1E6)
Provide only the numeric value, understood in μL/min/1E6.

N#C[C@@H]1CSCN1C(=O)CNC(=O)c1ccnc2ccc(-n3ccc4cc(F)ccc43)cc12: 27

Req: What value of rHep CLint has been reported for the following molecule? N#C[C@@H]1CSCN1C(=O)CNC(=O)c1ccnc2ccc(N3CCC[C@H]3C(F)(F)F)cc12
Resp: 160

Req: What value of rHep CLint has been reported for the following molecule? CC(C)n1nccc1-c1ccc2nccc(C(=O)NCC(=O)N3CSC[C@H]3C#N)c2c1
Resp: 5.3

Req: What value of rHep CLint has been reported for the following molecule? N#C[C@@H]1CSCN1C(=O)CNC(=O)c1ccnc2ccc(N3CCC4(CC3)OCCO4)cc12
Resp: 9

Req: What value of rHep CLint has been reported for the following molecule? N#C[C@@H]1CSCN1C(=O)CNC(=O)c1ccnc2ccc(N3CCOC(F)(F)C3)cc12
Resp: 14

Req: What value of rHep CLint has been reported for the following molecule? N#C[C@@H]1CSCN1C(=O)CNC(=O)c1ccnc2ccc(N3CCC4(CC3)COC4)cc12
Resp: 15

Req: What value of rHep CLint has been reported for the following molecule? CCC1(OC)CCN(c2ccc3nccc(C(=O)NCC(=O)N4CSC[C@H]4C#N)c3c2)CC1
Resp: 5.3

Req: What value of rHep CLint has been reported for the following molecule? CC(C)C1(O)CCN(c2ccc3nccc(C(=O)NCC(=O)N4CSC[C@H]4C#N)c3c2)CC1
Resp: 2.9
